assay: in vivo; parameters: species or system mice; settings: C57, mouse, iv, 0.037 MBq, total radioactivity, Tumor/liver ratio as times the tumor/liver ratio of ^67Cu-NOTA-GGNle-CycMSHhex
recorded_endpoint: tissue to tissue ratio at 2 h

CCCC[C@H](NC(=O)COCCOCCNC(=O)CN1CCN(CC(=O)O)CCN(CC(=O)O)CC1)C(=O)N[C@H]1CC(=O)NCCCC[C@@H](C(N)=O)NC(=O)[C@H](Cc2c[nH]c3ccccc23)NC(=O)[C@H](CCCNC(=N)N)NC(=O)[C@@H](Cc2ccccc2)NC(=O)[C@H](Cc2c[nH]cn2)NC1=O [^67Cu-NOTA-PEG2Nle-CycMSHhex, metal not drawn] ... 3.3
